Reference for the values: ChEMBL document CHEMBL1201862

Listed here: compounds with reported GI50 for HCT-15.

Please state GI50 for every compound in the list that follows.
1. COc1c(F)c(F)c(C(=O)/C=C2\Nc3ccccc3NC2=O)c(F)c1F
2. COC(=O)c1ccc2cc(O)c(O)cc2c1
3. CCCSc1cc(Cl)c(C)cc1S(=O)(=O)n1ccnc1OCCCN(C)C
4. CCOC(=O)c1c(SC)nc(-c2ccc(Cl)cc2)sc1=N.[O-][Cl+3]([O-])([O-])O
5. COc1ccc(-c2ccccc2)c(N/N=C2\CCCNC2=O)c1

1. > 10 µM
2. 33 µM
3. > 100 µM
4. 22.9 µM
5. > 100 µM

State the recorded GI50 for every item in the following list.
1. COc1ncc(/C=C2\OC(=O)c3ccccc32)c(OC)n1
2. CC(C)(C)C1CCC2c3c([nH]c4ccccc34)C3C(=O)N(c4ccc(C(=O)O)cc4)C(=O)C3C2C1 (stereo not given)
3. CCOC(=O)Nn1cnnc1C

1: 65.2 µM; 2: 12 µM; 3: > 100 µM

I have 3 compounds here; please give me GI50 for each one.
1. Cc1ccc2nc(NC(=O)C(=O)C(C#N)c3nc4ccccc4s3)sc2c1 (stereo not given)
2. CNc1nc(N)c(N=O)c(Nc2ccc(Br)cc2)n1
3. Cc1ccccc1/C=C/c1csnn1

1. 32 µM
2. > 100 µM
3. > 42.2 µM

====

# Tested on: OVCAR-4
# Assay Comment: NCI tumour cell line growth inhibition, 48 h
Active and inactive are the calls of the source. Rule as the data show it: active = GI50 up to about 1.1 µM and inactive = higher.
Output constraint: value belongs to active, inactive

Example entries begin here.
Compound: CC1(O)CC(=O)c2c(cc3ccc(-c4c5c(c(O)c6c(O)cccc46)C(=O)CC(C)(O)C5)c(O)c3c2O)C1 (stereo not given)
Label Class: active
//
Compound: CCCSc1cc(Cl)c(C)cc1S(=O)(=O)n1ccnc1OCCCN(C)C
Label Class: inactive

Status in this test for O=S1(=O)C(=C(c2ccccc2)c2ccccc2)S(=O)(=O)c2ccccc21 ? inactive

Fill in: this test's call for CC(C)[Si]1(C(C)C)OCC2OC3(CO)C(Oc4nc(=O)ccn43)C2O[Si](C(C)C)(C(C)C)O1 (stereo not given) is ___ inactive

Returns: the outcome recorded for O=C1C2C(C(=O)N1c1ccccc1)C1c3ccccc3C2C2C(=O)N(c3ccccc3)C(=O)C21 (stereo not given) in this assay. inactive

====

Please provide measured GI50 for the entries that follow.
# System: LXFL 529
# Assay Comment: NCI tumour cell line growth inhibition, 48 h
Active and inactive are the calls of the source. No stated cut-off is given here; in the data, active = GI50 up to about 1.1 µM and inactive = higher.

Examples from the recorded data:
Compound: COc1ccc([C@H]2CC3C(=O)N(c4ccc(OC)cc4)C(=O)C3c3[nH]c4ccccc4c32)cc1 (some centres not stated)
Tested System: LXFL 529
Property Measured: GI50
Data Value: 55.1 µM (inactive)
--
Compound: O=C1C2C3C=CC(C2C(=O)N1CO)C1C2C(=O)N(CO)C(=O)C2C31 (configuration not stated)
Tested System: LXFL 529
Property Measured: GI50
Data Value: > 81.1 µM (inactive)
--
Compound: C=CCn1c2c(sc1=S)C(S)NC=N2 (configuration not stated)
Tested System: LXFL 529
Property Measured: GI50
Data Value: > 100 µM (inactive)
--
Compound: NC1=NS(=O)(=O)N=C(N)C1=Cc1ccc([N+](=O)[O-])o1
Tested System: LXFL 529
Property Measured: GI50
Data Value: 17.1 µM (inactive)

Dear colleague, could you please provide GI50 for the compounds listed below?
1. COc1ccc(-c2cc(-c3cc(Cl)cc(Br)c3O)nc(O)n2)cc1
2. N#Cc1c(N)c(C(=O)O)nn(-c2cccc(C(F)(F)F)c2)c1=O
3. NCCCCNCCCNC(=O)c1nc(-c2csc(CCN)n2)sc1Cl

1. 14.6 µM (inactive)
2. > 100 µM (inactive)
3. 17.9 µM (inactive)
